# Test system: E. coli TESEC Mtb Alr
# assay procedure: growth (OD600 after 10 h); higher = more growth (less inhibition)
# setup conditions: arabinose 1000 nM; compound 0.1 mM; raw OD600 reference: median of DMSO wells 0.294, cell-free background 0.041
Where a name gives a salt, the structure may show the parent alone.
quantity kind: growth
One number for each entry.

Check out these entries, answers already filled in.
molecule="CN1CCCN=C1/C=C/c1cccc(O)c1 [Oxantel pamoate]" experimental_system="E. coli TESEC Mtb Alr" recorded_result=0.303
molecule="C[C@@H]1CCC[C@H](C)N1NC(=O)c1ccc(Cl)c(S(N)(=O)=O)c1 [Clopamide]" experimental_system="E. coli TESEC Mtb Alr" recorded_result=0.294
molecule="NS(=O)(=O)Cc1noc2ccccc12 [Zonisamide]" experimental_system="E. coli TESEC Mtb Alr" recorded_result=0.301
molecule="CC(C)(S)C(N)C(=O)O (racemic) [D,L-Penicillamine]" experimental_system="E. coli TESEC Mtb Alr" recorded_result=0.307
molecule="CC(C)n1c(/C=C/C(O)CC(O)CC(=O)O)c(-c2ccc(F)cc2)c2ccccc21 (configuration not stated) [Fluvastatin sodium salt]" experimental_system="E. coli TESEC Mtb Alr" recorded_result=0.247

// input: 3 molecules below; output: growth for each
1. Cc1cn([C@H]2C=C[C@@H](CO)O2)c(=O)[nH]c1=O [Stavudine]
2. CC(=O)Oc1cccc2c1C(=O)c1c(OC(C)=O)cc(C(=O)O)cc1C2=O [Diacerein]
3. CCCNCC(O)COc1ccccc1C(=O)CCc1ccccc1 (configuration not stated) [Propafenone hydrochloride]

[0.285, 0.136, 0.241]
